Provenance of the data: PubChem BioAssay (NCI)

The following compounds are shown together with reported growth values.
system: BT-549 breast; assay: NCI-60 one-dose screen, 48 h (100 = growth as untreated, 0 = no growth, -100 = all killed); details: 10 µM unless noted
The panel holds about 83,000 compounds, 20% with a hit somewhere; the sample as a whole holds those more often.
PROPERTY: growth (%)

{"columns": ["COMPOUND", "REPORTED VALUE"],
 "data": [
  ["O=C1c2nsnc2C(=O)c2c(F)c(F)c(F)c(F)c21", -96.7],
  ["O=C1C2C3C=CC(O3)C2C(=O)N1Nc1ccccc1 (stereo unspecified)", 108],
  ["O=C(CCc1nnc(Cn2ccnc2)o1)c1nc2ccccc2[nH]1", 114],
  ["Cc1c(N(C)CS(=O)(=O)O)c(=O)n(-c2ccccc2)n1C", 96.5],
  ["Cc1cc(CC(=O)O)n(C)c1C(=O)c1ccc(Cl)cc1", 101],
  ["CC1SC(c2c(Cl)cccc2Cl)N(NC(=O)c2[nH]c3ccc(F)cc3c2-c2ccccc2)C1=O (stereo unspecified)", 75.7]
]}

====

tested on: NCI-H522 lung; assay: NCI-60 one-dose screen, 48 h (100 = growth as untreated, 0 = no growth, -100 = all killed); conditions: 10 µM unless noted
The panel holds about 83,000 compounds, 20% with a hit somewhere; the sample as a whole holds those more often.
Quick reference for growth among some compounds
PROPERTY: growth (%)

{"columns": ["COMPOUND", "PROPERTY", "UOM", "REPORTED VALUE"],
 "data": [
  ["Oc1[nH]c2ccc(Cl)cc2c1/C=c1/ccc2c(c1)N=C(c1ccc(C(F)(F)F)cc1)N=2", "growth", "%", 45.7],
  ["O=C(Nc1nc(-c2ccccc2)cs1)c1cc(O)c(O)c(O)c1", "growth", "%", -29.4],
  ["c1ccc(-c2nn[nH]n2)c(-c2ccc(CN3CCN(c4nsc5ccccc45)CC3)cc2)c1", "growth", "%", 69],
  ["COc1cccc(C2C(C#N)=C(N)Oc3cc(OC)ccc32)c1 (configuration not stated)", "growth", "%", -38.4],
  ["Cc1c(C(N)=O)sc2ncn(CC(=O)Nc3ccc(Cl)cc3)c(=O)c12", "growth", "%", 141],
  ["O=C1OC(c2ccc(-c3ccccc3)cc2)=C/C1=C/c1cccs1", "growth", "%", 63],
  ["O=C(CSc1nnc(Nc2ccccc2)s1)NCCc1ccc(F)cc1", "growth", "%", 91.5],
  ["O=C(C=C=Nc1ccccc1)C(=O)N=C=Cc1ccccc1", "growth", "%", -82.5],
  ["Cc1cc(CC(=O)O)n(C)c1C(=O)c1ccc(Cl)cc1", "growth", "%", 101],
  ["OCCOc1c(Cl)cc(Cl)cc1Cl", "growth", "%", 108],
  ["COc1cc(/C=C/C(=O)N2CCN(C(=O)/C=C/c3ccccc3)CC2)cc(OC)c1OC", "growth", "%", 92.7],
  ["CCOC(=O)C(Cc1ccccc1)(C(=O)OCC)C(Br)C(=O)c1ccccc1 (configuration not stated)", "growth", "%", 22.5],
  ["Cc1ccc2c(c1)C(=O)/C(=C/c1ncc([N+](=O)[O-])n1C)O2", "growth", "%", -64.1],
  ["O=C(NN(C(=O)c1ccccc1)c1cccs1)c1ccccc1", "growth", "%", 91.3],
  ["COc1ccc(-c2csc(NC(=O)c3cc(O)c(O)c(O)c3)n2)cc1", "growth", "%", -22.9],
  ["COc1ccc2[nH]cc(/C=C3/C(=O)Nc4ccc(F)cc43)c2c1", "growth", "%", 81.5],
  ["COc1ccc(/C=C(\\C#N)c2ccccc2)cc1", "growth", "%", 90.1],
  ["O=C(c1ccccc1)c1ccccc1Cl", "growth", "%", 92.4],
  ["CN(C)c1ccc(/C=C\\c2ccnc3ccccc23)cc1", "growth", "%", -7.89],
  ["CCCCN(CCCC)CCCOC(=O)c1ccc(N)cc1", "growth", "%", 67],
  ["COc1ccc2c(c1)nc(N)c1c3ccccc3cn21", "growth", "%", 58.1],
  ["Nc1nc2ncc(CCNc3ccc(C(=O)NC(CCC(=O)O)C(=O)O)cc3)nc2c(=O)[nH]1 (configuration not stated)", "growth", "%", 28],
  ["O=C(Nc1cccc([N+](=O)[O-])c1)c1cccc(C(=O)Nc2cccc([N+](=O)[O-])c2)c1", "growth", "%", 22.5],
  ["Cn1[nH]cc(/C=N/C(N)=O)c1=O", "growth", "%", 121],
  ["COc1ccc(/C=N\\Nc2ccc([N+](=O)[O-])cn2)cc1OC", "growth", "%", 47.9],
  ["COc1ccc2c(c1)/C(=C\\c1c[nH]c3ccc(F)cc13)C(=O)N2", "growth", "%", 80],
  ["C/C(=N/N=C(N)N)c1ccc(N)cc1", "growth", "%", 91.5],
  ["Clc1nc(Cl)c2ncn(-c3ccccc3)c2n1", "growth", "%", -68.9],
  ["CCOC(=O)/C(=C/c1ccccc1)C(=O)c1ccccc1", "growth", "%", 67.6],
  ["Oc1[nH]c2ccccc2c1/C=c1/ccc2c(c1)N=C(c1cc(F)cc(F)c1)N=2", "growth", "%", 59.7],
  ["Cc1cc([N+](=O)[O-])c(C)cc1C(=O)O", "growth", "%", 96.1],
  ["O=C(C(=O)N1CCOCC1)c1ccc(OC2OC(CO)C(O)C(O)C2O)cc1 (configuration not stated)", "growth", "%", 79.9],
  ["Cc1cc(NC(=O)c2ccc(N)cc2)ccc1N=Nc1ccc2c(O)c(N=Nc3ccc(Cl)c(S(=O)(=O)O)c3)c(S(=O)(=O)O)cc2c1", "growth", "%", 78.6],
  ["COc1cc(NC(=O)c2cc3ccccc3cc2O)c(OC)cc1Cl", "growth", "%", -30.1],
  ["O=C1Cc2cc(CCn3cncn3)c(Cl)cc2N1", "growth", "%", 32.8],
  ["CC(C)[C@]12O[C@H]1[C@@H]1O[C@]13[C@]1(O[C@H]1C[C@H]1C4=C(CC[C@@]13C)C(=O)OC4)[C@@H]2OC(=O)CN(C)C", "growth", "%", -41.8],
  ["O=[N+]([O-])c1ccc(Oc2cccc(C(F)(F)F)c2)c([N+](=O)[O-])c1", "growth", "%", -16],
  ["CC[C@H](C)C(=O)O[C@H]1C[C@@H](C)C=C2C=C[C@H](C)[C@H](CC[C@@H]3C[C@@H](O)CC(=O)O3)[C@H]21", "growth", "%", 27.3],
  ["COc1ccc(-c2csc(NC(=O)c3cc(OC)c(OC)c(OC)c3)n2)cc1", "growth", "%", 107],
  ["COc1cc2c(c(OC)c1OC)-c1ccc(NN(C(=O)c3ccccc3)C(=O)c3ccccc3)c(=O)cc1[C@@H](NC(C)=O)CC2 (tested in a mixture with another compound)", "growth", "%", -8.35],
  ["Oc1ccc(-c2nn(-c3ccccc3)cc2-c2nc3ccccc3s2)cc1", "growth", "%", 101],
  ["CN(C)c1ccc2c(c1)/C(=N/O)c1ccccc1-2", "growth", "%", 89]
]}

====

Items are presented alongside their recorded growth.
test system: SF-268 CNS; test: NCI-60 one-dose screen, 48 h (100 = growth as untreated, 0 = no growth, -100 = all killed); conditions: 10 µM unless noted
The panel holds about 83,000 compounds, 20% with a hit somewhere; the sample as a whole holds those more often. Active and inactive are the calls of the source. How the source made its calls: active means growth percent below 10; inactive means the rest.

{"columns": ["COMPOUND", "growth"],
 "data": [
  ["Cc1cc(N2CCOCC2)nc(N2CCOCC2)n1", "100% (inactive)"],
  ["Cn1c(=O)c2c(nc(Br)n2CCC(=O)Nc2ccc(F)cc2)n(C)c1=O", "111% (inactive)"],
  ["CN1CCCC1c1cccnc1 (stereo unspecified)", "111% (inactive)"],
  ["COc1cc2c(cc1OC)C1CCN3C(=O)CCC3N1CC2 (stereo unspecified)", "103% (inactive)"],
  ["COc1ccc(C2=NNC(c3cc(Cc4ccc(O)c(C5CC(c6ccc(OC)cc6)=NN5)c4)ccc3O)C2)cc1 (stereo unspecified)", "44% (inactive)"],
  ["O=C(O)c1ccc(NC(=O)c2ccc(Nc3ccnc(C(F)(F)F)c3)cc2)cc1", "98% (inactive)"]
]}

====

Tested on: SNB-75 CNS
Assay: NCI-60 one-dose screen, 48 h (100 = growth as untreated, 0 = no growth, -100 = all killed)
Conditions: 10 µM unless noted
Method: Growth inhibition of the SNB-75 human tumor cell line is measured as a screen for anti-cancer activity. Cells are grown in 96 well plates and exposed to the test compound for 48 hours. Compounds are tested at a single concentration, which is 10^-5 M for most compounds. The reported endpoint is percent growth (GI% or GIPRCNT), where numbers from 0 - 100% represent growth inhibition, and numbers from -100% - 0 represent cell death. For example, a value of 40 represents 60% growth inhibition. […]
Compounds without any hit were thinned out: in the full panel of roughly 83,000, 20% have a hit. Active and inactive are the calls of the source. How the source made its calls: active means growth percent below 10; inactive means the rest.
Known growth of a selection of molecules
PROPERTY: growth

{"columns": ["MOLECULE", "REPORTED VALUE"],
 "data": [
  ["NC(N)=NC(N)=NCCCc1ccccc1", "57.5% [100 µM] (inactive)"],
  ["CC(C)[C@H]1CC[C@H]2[C@@H](CC[C@H]3[C@](C)(CN)CCC[C@]23C)C1", "69% (inactive)"],
  ["ClC1=C(Cl)C(=C2C(Cl)=C(Cl)C(Cl)=C2Cl)C(Cl)=C1Cl", "94.4% (inactive)"],
  ["CCC(O)C(C)(C)C (centres undefined)", "108% (inactive)"],
  ["Cc1ccccc1-c1cc(Cc2ccccc2O)c(=O)[nH]n1", "106% (inactive)"],
  ["Cc1ccc(C(O)C2=CC(=O)c3ccccc3C2=O)cc1 (centres undefined)", "92.3% (inactive)"],
  ["Cc1cc(O)c2c(c1)C[C@H]1[C@@H]3CC[C@H]4CC(=O)CC[C@]4(C)[C@H]3CC(=O)[C@]21C", "98.4% (inactive)"],
  ["COc1cc(/C=C2\\COc3ccc(O)cc3C2=O)cc(OC)c1", "87% (inactive)"],
  ["O=C1c2ccccc2-c2c1nc1ccccc1[n+]2[O-]", "103% (inactive)"],
  ["C=CCOc1ccc2c(c1)CC[C@@H]1[C@@H]2CC[C@@]2(C)[C@H]1CC[C@]2(C)O", "93.3% (inactive)"],
  ["O=C1OCCCCCCCCCC#Cc2ccccc21", "88.7% (inactive)"],
  ["NC(=O)N/N=C/c1ccc(Br)o1", "105% (inactive)"],
  ["Nc1nc(SCc2ccccc2Cl)c(-c2ccccc2)c(SCc2ccccc2Cl)n1", "107% (inactive)"],
  ["CC(c1cc(Cl)ccc1O)c1cc(Cl)ccc1O", "35.8% (inactive)"],
  ["COc1cc(-c2cc(C(=O)Nc3nc4ccccc4s3)nc3cc(-c4ccccc4)nn23)cc(OC)c1OC", "36.6% (inactive)"],
  ["CCC1(c2ccccc2)Oc2ccccc2-n2c(C#N)c3ccccc3c2C1=O (centres undefined)", "95.9% (inactive)"],
  ["Cn1[nH]cc(/C=N/C(N)=O)c1=O", "106% (inactive)"],
  ["N#CCNc1ccccc1N", "77.8% (inactive)"],
  ["COc1ccc(-c2nn(-c3ccccc3)cc2/C=C2\\SC(=S)N(CCc3ccc(O)cc3)C2=O)cc1", "81% (inactive)"],
  ["CCc1ccc(CCN2C(=O)c3ccccc3C2=O)nc1", "99% (inactive)"],
  ["CC(=O)NC1(C(=O)O)CCCC1", "102% (inactive)"],
  ["COc1cc(OC)c2cc(C(=O)O)c(=O)oc2c1", "125% (inactive)"],
  ["CCCCSc1cc(C)nc(N)n1", "81% (inactive)"],
  ["CN(CC(=O)Nc1nc2ccccc2[nH]1)S(=O)(=O)c1ccc(Cl)cc1", "101% (inactive)"]
]}
